Assay: Blood concentration profile in rats (1)
Settings: female, SD, rat, whole blood, iv, 5 mg/kg

compound	concentration at 72 h / ng/mL
C=CC[C@@H]1/C=C(\C)C[C@H](C)C[C@H](OC)[C@H]2O[C@@](O)(C(=O)C(=O)N3CCCC[C@H]3C(=O)O[C@H](/C(C)=C/[C@@H]3CC[C@@H](O)[C@H](OC)C3)[C@H](C)[C@@H](O)CC1=O)[C@H](C)C[C@@H]2OC [Tacrolimus, tacrolimus]	0.273
